Quick reference: melting point of the listed items.
Where a name gives a salt, the structure may show the parent alone.

Some solved entries appear below for comparison.
INSERT INTO measurements (compound, quantity_kind, result) VALUES
  ('CONCc1nc2c(N)nc3ccccc3c2n1CC(C)(C)O (as salt: hydrochloride)', 'melting point', '255 to 257 °C'),
  ('CON=Cc1nc2c(N)nc3ccccc3c2n1CC(C)C', 'melting point', '181 to 183 °C'),
  ('CONCc1nc2c(N)nc(C)c(C)c2n1CC(C)C', 'melting point', '154 to 156 °C'),
  ('CONCc1nc2cnc3ccccc3c2n1CC1CCOCC1', 'melting point', '58 to 63 °C');

Now examine the next entry.
Query string: Determine its reported melting point: CON(C)Cc1nc2c(N)nc3ccccc3c2n1CC(C)(C)O
Result string: 220 to 222 °C

---

quantity kind: melting point

Some solved entries appear below for comparison.
INSERT INTO results (compound, result) VALUES
  ('CONCc1nc2c(N)nc3ccccc3c2n1CC1CCOCC1', '169 to 171 °C'),
  ('CONCc1nc2c(N)nc3cc(OCc4ccccc4)ccc3c2n1CC1CCOCC1', '190 to 193 °C'),
  ('CON(C)Cc1nc2c(N)nc(C)c(C)c2n1CC(C)C', '132 to 134 °C'),
  ('CON(C)Cc1nc2c(N)nc3ccccc3c2n1CC1(O)CCC1', '219 to 221 °C'),
  ('CON(C)Cc1nc2c(N)nc3ccccc3c2n1CC1CCOCC1', '223 to 226 °C');

Query string: Determine its reported melting point: CON(C)Cc1nc2c(N)nc3cc(OCc4ccccc4)ccc3c2n1CC1CCOCC1
Result string: 159 to 161 °C

Query string: Determine its reported melting point: CON(Cc1nc2c(N)nc3cc(OCc4ccccc4)ccc3c2n1CC1CCOCC1)S(C)(=O)=O
Result string: 195 to 197 °C

Query string: Determine its reported melting point: CONCc1nc2c(N)nc3ccccc3c2n1CC1(O)CCC1
Result string: 178 to 181 °C

Query string: Determine its reported melting point: CO/N=C/c1nc2c(N)nc(C)c(C)c2n1CC(C)C
Result string: 179 to 181 °C

---

Quick reference: melting point of the listed items.

INSERT INTO assay_data (compound, result) VALUES
  ('CON(Cc1nc2c(N)nc(C)c(C)c2n1CC(C)C)C(=O)C1CC1', '135 to 137 °C'),
  ('CON(C)Cc1nc2cnc3ccccc3c2n1CC1CCOCC1', '142 to 144 °C');

Query string: Determine its reported melting point: CON=C(C)CCc1nc2c(N)nc3ccccc3c2n1CC(C)(C)O
Result string: 182 to 184 °C
